Where these numbers come from: PubChem BioAssay

- test description: basal RPMI8226 mitochondrial membrane potential changes, profiling panel, cell-based, JC-1 fluorescence, 24 h, 100 nL compound (AID 1169); also: test concentration not given here
- measurement parameters: RPMI8226 myeloma, JC-1 mitochondrial potential fluorescence, higher = more signal
observation type: z-score
Answer using only a numeral; do not append any unit.

Some molecules with known z-score results, for comparison:
molecule	z-score
C=CCC(OC(C)=O)[C@@H]1[C@@H](N(Cc2cccc3ccccc23)C(=O)c2cccc3ccccc23)c2cc(OCCCO)ccc2N1C(=O)Cc1ccc2ccccc2c1 (stereo partly drawn)	0.00587
COC(=O)Cn1c(C(=O)N(C)C)cc2c1C[C@H]1CN(C(=O)c3ccccc3)[C@@](Cc3ccc(OC)cc3)(C(=O)OC)[C@@H]21	-0.329
NCCCC[C@@H]1NC(=O)[C@H]2C[C@@H](C(=O)O)[C@@H](c3cccc(OCCO)c3)N2C1=O	-0.392
CCCC=C(CCC)[C@@H](NS(=O)(=O)c1ccc(Cl)cc1)c1ccccc1	-0.372
COC(=O)[C@@]1(Cc2ccccc2)[C@@H]2[C@@H](CC(=O)[C@H]2CC(=O)C(=O)N(C)C)CN1C(=O)c1ccccc1	0.209

input: Quick check: z-score of C=CC[C@]1(C(=O)N(C)C)COC(c2ccc(OCCCO)cc2)=N1 ?
output: -0.676

input: Quick check: z-score of CCCCC=C[C@@H](NC(=O)c1ccc(C(F)(F)F)cc1)c1ccccc1 ?
output: -0.169

input: Quick check: z-score of O=C1C2C=CC(C(O)c3cccc(O)c3)N(Nc3ccccc3F)C2C(=O)N1c1ccccc1 (stereo not drawn) ?
output: 0.742

* * *

- test description: osmotic lysis modulators in infected erythrocytes, primary screen, PSAC antagonist project, cell-based, P. falciparum Indochina, OD700, 3 h (AID 1156)
- measurement parameters: higher = more signal, called active from +8 up or from −8 down
Tag: label 1 if measured z-score is not below 1, label 0 if it is.

Would you please look over these solved cases?
compound	label class
Cc1ccc(S[C@]2(C(=O)NCCCN(C)C)CC(=O)N(Cc3ccccc3Cl)[C@@H]2c2ccc(CO)cc2I)cc1	label 0
COCCOC(=O)N1C(=O)[C@@]2(c3cc(C#CCC(C(=O)OC)C(=O)OC)ccc31)[C@H](c1ccc(OCCO)cc1)N1[C@H](c3ccccc3)[C@H](c3ccccc3)OC(=O)[C@H]1[C@@H]2C(=O)N1CCCCCCC1	label 1
COC(=O)[C@@]1(Cc2ccc(F)cc2)[C@H]2c3cc(C(=O)N(C)C)n(CCN4CCOCC4)c3C[C@H]2CN1C(=O)c1ccccc1	label 0
CN(C)CCCC[C@@H]1NC(=O)[C@@H]2C[C@H](C(=O)NCCCCCCNC(=O)CS)[C@H](c3cccc(OCCO)c3)N2C1=O	label 0
C=CCC(OC(C)=O)[C@@H]1[C@@H](N(Cc2cc3ccccc3o2)C(=O)Cc2ccc(OC)cc2)c2cc(OCCCO)ccc2N1C(=O)Cc1ccc(OC)cc1 (stereo partly specified)	label 1

From here, focus on the item given below.
input: Can CN(C)C(=O)[C@@]1(CCS(=O)(=O)c2ccccc2)N=C(c2ccc(OCCCO)cc2)O[C@H]1c1ccccc1N=[N+]=[N-] be said to have z-score at or above 1?
output: label 1

* * *

- test description: small-molecule microarray binders of probe aWnt5a, primary screen, biochemical, biotinylated probe, 635/667 nm fluorescence (AID 1113);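 also: score merges 667 nm fluorescence intensity with signal-to-noise per printed feature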
- measurement parameters: higher = more signal
Tag: T if measured composite z-score is not below -0.03, F if it is.

Would you please look over these solved cases?
compound	label class
CC(C)C[C@@H]1NC(=O)[C@H]2C[C@@H](C(=O)NCCCCCCNC(=O)CS)[C@@H](c3ccc(O)cc3)N2C1=O	F
COc1ccc(C(O)C2C=CC3C(=O)N(C)C(=O)C3N2Nc2ccc([N+](=O)[O-])cc2[N+](=O)[O-])cc1OCc1ccccc1 (stereo unspecified)	T
O=C1C2C=CC(C(O)c3cccc(O)c3)N(Nc3ccccc3F)C2C(=O)N1c1ccccc1 (stereo unspecified)	F
CCC(CC)C(O)C1C=CC2C(=O)N(C)C(=O)C2N1N1CCCCC1 (stereo unspecified)	T
C=CCC(OC(C)=O)[C@@H]1[C@@H](N(Cc2cc3ccccc3o2)C(=O)Cc2ccc(OC)cc2)c2cc(OCCCO)ccc2N1C(=O)Cc1ccc(OC)cc1 (stereo partly specified)	F

input: Can CC(=O)c1ccc(C(O)C2C=CC3C(=O)NC(=O)C3N2Nc2ccc(Cl)cc2Cl)cc1 (stereo unspecified) be said to have composite z-score at or above -0.03?
output: T

* * *

A collection of molecules and their measured composite Z-score
- test description: small-molecule microarray binders of probe aXIP, primary screen, biochemical, NeuroSMM set, 635/667 nm fluorescence (AID 1119);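 also: probe is the protein aXip251-270 applied at 1 µg/mL to compound-printed slides; binding of probe to printed compounds measured as 667 nm fluorescence plus signal to noise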
- measurement parameters: higher = more signal, called active from +8 up or from −8 down
Answer using only a numeral; do not append any unit.

Some molecules with known composite Z-score results, for comparison:
molecule	composite Z-score
CC1CC/C=C\[C@H]2OC34C=CCN(CCN5CCOCC5)C(=O)[C@H]3N(CCCCCCO)C(=O)[C@@H]4C2C(=O)O1 (stereo partly drawn)	0.446
CC(C)C[C@@H]1NC(=O)[C@@]23C(=O)N[C@@H](Cc4ccccc4)C2[C@H](C)[C@@]2(C)O[C@H]2C3/C=C/C/C=C\CNC(=O)[C@@H](CC(C)C)NC1=O (stereo partly drawn)	0.183

Next molecule, composite Z-score to be filled in.
input: Quick check: composite Z-score of COCCOC(=O)N1C(=O)[C@@]2(c3cc(C#CC4=CCCCC4)ccc31)[C@H](C(=O)N1CCN(c3ncccn3)CC1)[C@H]1C(=O)O[C@H](c3ccccc3)[C@H](c3ccccc3)N1[C@@H]2c1ccccc1OCCO ?
output: 0.0421

* * *

- Test system: Lefty1
- test description: Lefty1 binders on small-molecule microarrays, primary screen, biochemical, small-molecule microarray, 635/667 nm fluorescence (AID 1139)
- measurement parameters: small-molecule microarray binding, fluorescence 635/667; higher = more signal
A collection of molecules and their measured composite z-score
Answer using only a numeral; do not append any unit.

molecule	observation type	measured result
COc1cc(OC)c(C(O)C2C=CC3C(=O)N(c4ccccc4)C(=O)C3N2Nc2ccccc2F)cc1Br (centres undefined)	composite z-score	0.666
COCCOC(=O)N1C(=O)[C@@]2(c3ccccc31)[C@H](C(=O)N1CCCCCCC1)[C@H]1C(=O)O[C@H](c3ccccc3)[C@H](c3ccccc3)N1[C@@H]2c1ccc(O)cc1	composite z-score	1.69
[N-]=[N+]=NCc1ccccc1C[C@]1(C(=O)NCc2ccccc2)N=C(c2ccc(OCCCO)cc2)O[C@H]1c1ccccc1CN=[N+]=[N-]	composite z-score	-0.503

Next molecule, composite z-score to be filled in.
input: Quick check: composite z-score of C[C@H]1NC(=O)C([C@@H](C)OCc2ccccc2)NC(=O)[C@@]23C(=O)N[C@@H](Cc4ccccc4)C2[C@H](C)[C@@]2(C)O[C@H]2C3/C=C/C/C=C\CNC1=O (some centres undefined) ?
output: 0.459

* * *

- test target: NADPH oxidase 2 (Homo sapiens) (UniProt P04839)
- Sequence (P04839 whole entry, looked up): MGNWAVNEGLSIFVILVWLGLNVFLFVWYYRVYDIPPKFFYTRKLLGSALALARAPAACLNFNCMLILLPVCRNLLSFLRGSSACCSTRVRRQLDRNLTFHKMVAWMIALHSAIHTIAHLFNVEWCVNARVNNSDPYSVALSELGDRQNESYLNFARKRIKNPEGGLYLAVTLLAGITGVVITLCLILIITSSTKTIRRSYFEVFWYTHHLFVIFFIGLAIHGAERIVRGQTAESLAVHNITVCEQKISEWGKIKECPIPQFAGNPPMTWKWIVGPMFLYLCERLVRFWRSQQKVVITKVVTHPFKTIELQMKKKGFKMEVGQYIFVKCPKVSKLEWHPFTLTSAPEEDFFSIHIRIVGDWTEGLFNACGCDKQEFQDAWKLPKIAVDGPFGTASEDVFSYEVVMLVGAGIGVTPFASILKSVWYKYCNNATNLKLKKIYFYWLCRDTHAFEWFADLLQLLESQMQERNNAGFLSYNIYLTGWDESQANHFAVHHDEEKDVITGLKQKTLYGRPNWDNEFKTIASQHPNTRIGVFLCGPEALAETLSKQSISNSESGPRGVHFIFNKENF
- test description: NOX2-dependent H2O2 signal modulators, primary screen, NOX inhibitor project, cell-based, HEK293-NOX2, PMA-stimulated, Amplex Red fluorescence (AID 1159); also: test concentration not given here
- measurement parameters: 45 min, higher = more signal, called active from +8 up or from −8 down
observation type: z-score
Answer using only a numeral; do not append any unit.

input: Quick check: z-score of COCCOC(=O)N1C(=O)[C@@]2(c3cc(C#Cc4ccc(OC)cc4)ccc31)[C@H](C(=O)Nc1nc3ccccc3s1)[C@H]1C(=O)O[C@H](c3ccccc3)[C@H](c3ccccc3)N1[C@@H]2c1ccccc1OCCO ?
output: 1.13

input: Quick check: z-score of O=C1O[C@H](c2ccccc2)[C@H](c2ccccc2)N2[C@H]1[C@@H](C(=O)N1CCN(c3ncccn3)CC1)[C@]1(C(=O)Nc3ccccc31)[C@H]2c1ccc(O)cc1 ?
output: 0.898

input: Quick check: z-score of C[C@H]1NC(=O)C([C@@H](C)OCc2ccccc2)NC(=O)[C@@]23C(=O)N[C@@H](Cc4ccccc4)C2[C@H](C)[C@@]2(C)O[C@H]2C3/C=C/C/C=C\CNC1=O (stereo partly drawn) ?
output: -0.118

* * *

- test target: Torsin-1A (Homo sapiens)
- test description: small-molecule binders of mutant TOR1A in lysate, primary screen, cell lysate, small-molecule microarray, COS7 lysate, 635/667 nm fluorescence (AID 1150);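 also: score pools 667 nm emission and signal to noise measuring lysate protein binding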
- measurement parameters: COS7 hTOR1A mutant lysate, 635 nm fluorescence, higher = more signal
observation type: composite z-score
Answer using only a numeral; do not append any unit.

Some molecules with known composite z-score results, for comparison:
molecule	composite z-score
C=CCC(OC(C)=O)[C@@H]1[C@@H](N(Cc2ccc(-c3cccc(C(F)(F)F)c3)o2)C(=O)Cc2ccc(F)cc2)c2cc(OCCCO)ccc2N1C(=O)c1ccc2ccccc2n1 (stereo not given in full)	-0.326
Cc1ccc(F)cc1S(=O)(=O)N[C@@H]1CCN(Cc2ccc3[nH]ccc3c2)C1	0.608
C=CCC(OC(C)=O)[C@@H]1[C@@H](N(Cc2ccc(-c3cccc(C(F)(F)F)c3)o2)C(=O)Cc2ccc(OC)cc2)c2cc(OCCCO)ccc2N1C(=O)c1ccc2ccccc2n1 (stereo not given in full)	-0.475
CCCC=C(CCC)[C@@H](NS(=O)(=O)c1ccc(Cl)cc1)c1ccccc1	-0.292
CC=CC(O)C1C=CC2C(=O)N(C)C(=O)C2N1NC(=O)OC(C)(C)C (stereo not given)	0.229

input: Return composite z-score measured with Torsin-1A (Homo sapiens) given this molecule: CCCC[C@@H]1C[C@H]1[C@@H](NC(=O)Cc1ccccc1)c1ccc(Cl)cc1
output: 0.311

input: Return composite z-score measured with Torsin-1A (Homo sapiens) given this molecule: COc1ccc([Si](C)(C)[C@H]2[C@H](CCO)O[C@@]3(C(=O)N(Cc4ccccc4)c4ccc(N(C=O)c5ccccc5)cc43)[C@@H]2C)cc1
output: 0.865
